IC50 (µM), hCAII functional assay (p-nitrophenyl acetate hydrolysis) by entry:
target: human carbonic anhydrase 2 (wild-type hCAII) (Homo sapiens, UniProt P00918 4-259); test: cell-based or functional assay
* marks the point of attachment. Benzoyl(4-SO2NH2) = NS(=O)(=O)c1ccc(C(=O)*)cc1
endpoint_name: IC50 (µM), hCAII functional assay (p-nitrophenyl acetate hydrolysis)

* {Benzoyl(4-SO2NH2)}-LAAAE-NH2 (SMILES CC(C)C[C@H](NC(=O)c1ccc(S(N)(=O)=O)cc1)C(=O)N[C@@H](C)C(=O)N[C@@H](C)C(=O)N[C@@H](C)C(=O)N[C@@H](CCC(=O)O)C(N)=O) [(SAB)LAAAE] | 0.0284
* {Benzoyl(4-SO2NH2)}-AAAAE-NH2 (SMILES C[C@H](NC(=O)c1ccc(S(N)(=O)=O)cc1)C(=O)N[C@@H](C)C(=O)N[C@@H](C)C(=O)N[C@@H](C)C(=O)N[C@@H](CCC(=O)O)C(N)=O) [(SAB)AAAAE] | 0.0484
* {Benzoyl(4-SO2NH2)}-FAAAE-NH2 (SMILES C[C@H](NC(=O)[C@H](C)NC(=O)[C@H](Cc1ccccc1)NC(=O)c1ccc(S(N)(=O)=O)cc1)C(=O)N[C@@H](C)C(=O)N[C@@H](CCC(=O)O)C(N)=O) [(SAB)FAAAE] | 0.045
* {Benzoyl(4-SO2NH2)}-HAAAE-NH2 (SMILES C[C@H](NC(=O)[C@H](C)NC(=O)[C@H](Cc1c[nH]cn1)NC(=O)c1ccc(S(N)(=O)=O)cc1)C(=O)N[C@@H](C)C(=O)N[C@@H](CCC(=O)O)C(N)=O) [(SAB)HAAAE] | 0.148
* {Benzoyl(4-SO2NH2)}-EAAAE-NH2 (SMILES C[C@H](NC(=O)[C@H](C)NC(=O)[C@H](CCC(=O)O)NC(=O)c1ccc(S(N)(=O)=O)cc1)C(=O)N[C@@H](C)C(=O)N[C@@H](CCC(=O)O)C(N)=O) [(SAB)EAAAE] | 0.0993
